experiment-description: qHTS assay to test for compound auto fluorescence at 460 nm (blue) in HEK293 cell free culture (AID 720681)
condition: cell-free medium, autofluorescence 405/460 nm (blue); series mostly up to 46 µM
Calls of active or inactive are those of the source. Calls come from the whole dose curve; as a rule, active = well fitted curve in the direction sought with a large enough effect in the repeat runs; inconclusive = weak or mixed curves; inactive = flat fitted curve, though single readings scatter.
value-type: outcome

CO[C@H]1C=CO[C@@]2(C)Oc3c(C)c(O)c4c(O)c(c(/C=N/N5CCN(C6CCCC6)CC5)c(O)c4c3C2=O)NC(=O)/C(C)=C\C=C[C@H](C)[C@H](O)[C@@H](C)[C@@H](O)[C@@H](C)[C@H](OC(C)=O)[C@@H]1C    inactive
CC(C)(C)NCC(O)CSc1nc(-c2ccc(C(N)=O)s2)cs1 (stereo not drawn)    inactive
C=C[C@]1(C)C[C@@H](OC(=O)CSCCN(CC)CC)[C@]2(C)[C@H](C)CC[C@]3(CCC(=O)[C@H]32)[C@@H](C)[C@@H]1O    inactive

Cited source: PubChem BioAssay (Tox21)
